# study_system: human cloned 5-HT6 receptors (Homo sapiens)
# Construct: expressed in transfected cells; host or cells: HeLa cells
# Sequence (P50406 whole entry): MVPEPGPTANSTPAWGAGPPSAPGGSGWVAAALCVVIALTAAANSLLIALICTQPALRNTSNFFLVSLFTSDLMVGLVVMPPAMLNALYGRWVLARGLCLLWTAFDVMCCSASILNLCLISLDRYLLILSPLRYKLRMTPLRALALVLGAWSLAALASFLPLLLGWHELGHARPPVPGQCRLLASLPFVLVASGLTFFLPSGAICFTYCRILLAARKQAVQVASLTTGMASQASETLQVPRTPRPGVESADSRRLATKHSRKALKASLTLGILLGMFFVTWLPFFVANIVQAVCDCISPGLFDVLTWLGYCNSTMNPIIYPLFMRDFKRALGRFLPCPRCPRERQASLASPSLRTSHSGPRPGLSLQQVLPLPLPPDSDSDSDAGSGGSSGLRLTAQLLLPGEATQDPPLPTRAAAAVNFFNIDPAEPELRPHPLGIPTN
# assay_method_text: 5-HT6 binding affinity, [3H]-LSD displacement
# experimental_parameters: membranes of Hela cells expressing human cloned 5-HT6 receptors; [3H]-LSD 3.0 nM; 120 min, room temperature; read-out: 5-HT6 Binding Ki
pKi: −log10 of the molar value.
readout: pKi

• Cc1nc(S(=O)(=O)n2cc(CCN)c3ccsc32)cn1C [Example 30] = 6.87
• NCCc1cn(S(=O)(=O)c2cccc(F)c2)c2sccc12 [Example 17] = 8.03
• CN(C)CCc1cn(S(=O)(=O)c2ccccc2)c2ccsc12 [Example 70] = 8.92
• CN(C)CCc1cn(S(=O)(=O)c2ccccc2F)c2ccsc12 [Example 78] = 8.68
• NCCc1cn(S(=O)(=O)c2cccc(Br)c2)c2sccc12 [Example 24] = 8.05
• NCCc1cn(S(=O)(=O)c2ccc3ccccc3c2)c2ccsc12 [Example 66] = 8.04
• NCCc1cn(S(=O)(=O)c2cnc3sccn23)c2sccc12 [Example 19] = 8.47
• COc1cccc(S(=O)(=O)n2cc(CCN(C)C)c3sccc32)c1 [Example 76] = 8.89
• Cc1nc(S(=O)(=O)n2cc(CCN(C)C)c3ccsc32)cn1C [Example 60] = 7.30
• Cc1c(S(=O)(=O)n2cc(CCN)c3ccsc32)sc2ccc(Cl)cc12 [Example 15] = 6.99
• Cc1c(S(=O)(=O)n2cc(CCN(C)C)c3ccsc32)sc2ccc(Cl)cc12 [Example 45] = 7.69
• CN(C)CCc1cn(S(=O)(=O)c2cccc3ccccc23)c2sccc12 [Example 58] = 8.44
• NCCc1cn(S(=O)(=O)c2ccccc2C(F)(F)F)c2sccc12 [Example 32] = 7.68
• NCCc1cn(S(=O)(=O)c2cccc3cccnc23)c2sccc12 [Example 31] = 8.07
• NCCc1cn(S(=O)(=O)c2cccc(Cl)c2Cl)c2sccc12 [Example 23] = 8.15
• Cc1cccc(S(=O)(=O)n2cc(CCN(C)C)c3ccsc32)c1 [Example 59] = 8.80
• CN(C)CCc1cn(S(=O)(=O)c2c(Cl)nc3sccn23)c2ccsc12 [Example 74] = 9.70
• NCCc1cn(S(=O)(=O)c2ccc3ccccc3c2)c2sccc12 [Example 13] = 7.78
• NCCc1cn(S(=O)(=O)c2cc(Cl)c(Cl)s2)c2sccc12 [Example 27] = 7.49
• CN(C)CCc1cn(S(=O)(=O)c2ccccc2)c2sccc12 [Example 38] = 8.92
• CN(C)CCc1cn(S(=O)(=O)c2ccccc2F)c2sccc12 [Example 46] = 8.74
• CN(C)CCc1cn(S(=O)(=O)c2cccc(F)c2)c2ccsc12 [Example 79] = 9.05
• COc1cccc(S(=O)(=O)n2cc(CCN)c3ccsc32)c1 [Example 14] = 8.64
• NCCc1cn(S(=O)(=O)c2ccc(N)cc2)c2sccc12 [Example 35] = 8.62
• COc1cccc(S(=O)(=O)n2cc(CCN(C)C)c3ccsc32)c1 [Example 44] = 9.10
• CN(C)CCc1cn(S(=O)(=O)c2cccc(C(F)(F)F)c2)c2ccsc12 [Example 71] = 8.52
• Cc1c(S(=O)(=O)n2cc(CCN)c3sccc32)sc2ccc(Cl)cc12 [Example 68] = 7.60
• NCCc1cn(S(=O)(=O)c2ccccc2F)c2sccc12 [Example 16] = 7.92
• COc1ccc(S(=O)(=O)n2cc(CCN(C)C)c3ccsc32)cc1 [Example 63] = 8.43
• Cc1c(S(=O)(=O)n2cc(CCN(C)C)c3sccc32)sc2ccc(Cl)cc12 [Example 77] = 7.61
• CN(C)CCc1cn(S(=O)(=O)c2cccc3cccnc23)c2sccc12 [Example 61] = 8.33
• NCCc1cn(S(=O)(=O)c2cccc3ccccc23)c2sccc12 [Example 28] = 8.04
• CN(C)CCc1cn(S(=O)(=O)c2cccc(C(F)(F)F)c2)c2sccc12 [Example 39] = 8.64
• Cc1cccc(S(=O)(=O)n2cc(CCN)c3ccsc32)c1 [Example 29] = 8.11
• COc1ccc(S(=O)(=O)n2cc(CCN)c3ccsc32)cc1 [Example 33] = 7.61
• NCCc1cn(S(=O)(=O)c2ccc(Br)s2)c2sccc12 [Example 25] = 7.75
• COc1cccc(S(=O)(=O)n2cc(CCN)c3sccc32)c1 [Example 67] = 8.70
• NCCc1cn(S(=O)(=O)c2cccc(C(F)(F)F)c2)c2sccc12 [Example 9] = 8.05
